- assay.name: In vitro cytotoxicity, Sulforhodamine B (SRB) assay
- Assay type: cell-based, human
- recorded.conditions: human, HeLa cells, SRB assay, range 80 to 0.55 μg/mL
measure.name: GI50

1) COc1cccc2c1C(=O)c1c(O)c3c(c(O)c1C2=O)C[C@@](O)(C(=O)CO)C[C@@H]3O[C@H]1C[C@H](N)[C@H](O)[C@H](C)O1 [Adriamycin, reference compound] : 0.5 µg/mL
2) COc1ccc2occ(C3NC(=S)NC(C)=C3C(=O)NN)c(=O)c2c1 (stereo not drawn) [Compound 6f] : > 80 µg/mL
3) CC1=C(C(=O)NN)C(c2coc3ccc(F)cc3c2=O)NC(=O)N1 (stereo not drawn) [Compound 6c] : > 80 µg/mL

* * *

- Tested on: Escherichia coli 1411
- assay.name: In vitro antibacterial activity (MIC100, two fold serial dilution, NCCLS)
- Format: cell-based
- recorded.conditions: Escherichia coli, 1411, 24 h, read-out: MIC100
- Procedure: All the synthesized compounds 4(a–f) and 6(a–f) were screened for their in vitro antibacterial activity against Staphylococcus aureus (NCIM-2901), Escherichia coli 1411 (standard laboratory strains) and Escherichia coli SM1411 (an acrAB deficient derivative of 1411). Minimum inhibitory concentration (MIC100) values were determined using methods recommended by National Committee for Clinical Laboratory Standards (NCCLS). Dimethyl sulfoxide (DMSO) was used as solvent control. […]
measure.name: MIC

1) CC1=C(C(=O)NN)C(c2coc3ccccc3c2=O)NC(=O)N1 (stereo not shown) : 34 µg/mL
2) CCOC(=O)C1=C(C)NC(=S)NC1c1coc2ccc(F)cc2c1=O (stereo not shown) : 48 µg/mL
3) CCOC(=O)C1=C(C)NC(=S)NC1c1coc2ccccc2c1=O (stereo not shown) : 50 µg/mL
4) CCOC(=O)C1=C(C)NC(=O)NC1c1coc2ccc(OC)cc2c1=O (stereo not shown) : 55 µg/mL
5) CCOC(=O)C1=C(C)NC(=O)NC1c1coc2ccc(F)cc2c1=O (stereo not shown) : 38 µg/mL
6) CC1=C(C(=O)NN)C(c2coc3ccc(F)cc3c2=O)NC(=O)N1 (stereo not shown) : 14 µg/mL
7) CC1=C(C(=O)NN)C(c2coc3ccc(F)cc3c2=O)NC(=S)N1 (stereo not shown) : 16 µg/mL

* * *

- System: Candida albicans
Rule for this label: Condition met means MIC is less than 30 µg/mL; Condition not met means MIC is at least 30 µg/mL.

1) CCOC(=O)C1=C(C)NC(=S)NC1c1coc2ccccc2c1=O (stereo not shown) : Condition not met
2) CC1=C(C(=O)NN)C(c2coc3ccccc3c2=O)NC(=O)N1 (stereo not shown) : Condition not met
3) COc1ccc2occ(C3NC(=O)NC(C)=C3C(=O)NN)c(=O)c2c1 (stereo not shown) : Condition met
4) CCOC(=O)C1=C(C)NC(=O)NC1c1coc2ccccc2c1=O (stereo not shown) : Condition not met
5) CC1=C(C(=O)NN)C(c2coc3ccccc3c2=O)NC(=S)N1 (stereo not shown) : Condition not met
6) CC1=C(C(=O)NN)C(c2coc3ccc(F)cc3c2=O)NC(=O)N1 (stereo not shown) : Condition not met
7) CCOC(=O)C1=C(C)NC(=O)NC1c1coc2ccc(F)cc2c1=O (stereo not shown) : Condition not met
8) COc1ccc2occ(C3NC(=S)NC(C)=C3C(=O)NN)c(=O)c2c1 (stereo not shown) : Condition met
9) CCOC(=O)C1=C(C)NC(=O)NC1c1coc2ccc(OC)cc2c1=O (stereo not shown) : Condition not met
10) Clc1ccc(COC(Cn2ccnc2)c2ccc(Cl)cc2Cl)c(Cl)c1 (stereo not shown) [Miconazole, reference compound] : Condition met
11) CC1=C(C(=O)NN)C(c2coc3ccc(F)cc3c2=O)NC(=S)N1 (stereo not shown) : Condition not met
12) CCOC(=O)C1=C(C)NC(=S)NC1c1coc2ccc(F)cc2c1=O (stereo not shown) : Condition not met

These measurements were taken from paper PMC6017654.
